target: T1, Anti-CD28 Fab (SEQ ID NOs: 696, 697); test: phage binding ELISA; clonal phage on plate-captured biotinylated anti-CD28 Fab, anti-M13 HRP detection
T1 construct: In the phage ELISA the Fab was biotinylated and captured on neutravidin coated plates
T1 sequence (VH, as listed by the source, chain 1 of 2): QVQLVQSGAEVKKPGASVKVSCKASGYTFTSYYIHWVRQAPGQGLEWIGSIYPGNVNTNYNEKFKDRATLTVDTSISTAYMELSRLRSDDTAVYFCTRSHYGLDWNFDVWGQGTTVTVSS
T1 sequence (VL, as listed by the source, chain 2 of 2): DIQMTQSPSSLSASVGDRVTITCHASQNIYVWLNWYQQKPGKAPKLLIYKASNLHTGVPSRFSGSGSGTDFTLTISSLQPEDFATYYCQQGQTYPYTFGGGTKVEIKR
Where no end group is shown, it is not given here.
quantity_name: Anti-CD28 Fab signal (phage binding ELISA)
One number for each entry.

binder | number
YCEGHSAIYIAKCM (cysteine pairing not given here; also: displayed on phage by fusion to pIII, linker and pIII sequence not given here, Tested as clonal phage supernatant) [Phage-1221] | 0.98
YCDGHTGMYISKCL (cysteine pairing not given here; also: displayed on phage by fusion to pIII, linker and pIII sequence not given here, Tested as clonal phage supernatant) [Phage-1223] | 0.98
YCQGHFPQYMAKCL (cysteine pairing not given here; also: displayed on phage by fusion to pIII, linker and pIII sequence not given here, Tested as clonal phage supernatant) [Phage-1226] | 0.97
YCDGHEERYMAKCL (cysteine pairing not given here; also: displayed on phage by fusion to pIII, linker and pIII sequence not given here, Tested as clonal phage supernatant) [Phage-1233] | 0.94

Would you kindly look at the next entry?
According to the records, this binder YCSGHSWAYIGKCL (cysteine pairing not given here; also: displayed on phage by fusion to pIII, linker and pIII sequence not given here, Tested as clonal phage supernatant) [Phage-1224] displays Anti-CD28 Fab signal (phage binding ELISA) of 0.98
